meta.source: ChEMBL document CHEMBL4229405

experiment: Lipophilicity, log P of the compound; assay type: physicochemical; details: octanol/water
ENDPOINT_LABEL: logP
Answer with a bare number; do not write a unit.

In the examples that follow, each entry is paired with its recorded logP.
MOLECULE	logP
CCOC(=O)C1C(=O)C=C(Nc2ccc(N3CCN(CC)CC3)cc2)CC1c1ccccc1 (stereo unspecified)	4.77
COC(=O)C1C(=O)C=C(Nc2cccc(N3CCN(C)CC3)c2)CC1c1ccccc1 (stereo unspecified)	3.99
CCOC(=O)C1C(=O)C=C(Nc2cccc(N3CCN(C)CC3)c2)CC1c1ccccc1 (stereo unspecified)	4.37
CCOC(=O)C1C(=O)C=C(Nc2ccc(N3CCN(C)CC3)cc2)CC1c1ccccc1 (stereo unspecified)	4.39
CCOC(=O)C1C(=O)C=C(Nc2ccc(N3CCN(CC)CC3)cc2)CC1C (stereo unspecified)	3.45
COC(=O)C1C(=O)C=C(Nc2ccccc2N2CCN(C)CC2)CC1c1ccccc1 (stereo unspecified)	3.97
CCN1CCN(c2ccc(NC3=CC(=O)C(C(=O)OC)C(c4ccccc4)C3)cc2)CC1 (stereo unspecified)	4.39
COC(=O)C1C(=O)C=C(Nc2ccccc2N2CCN(C)CC2)CC1C (stereo unspecified)	2.65
CCN1CCN(c2ccc(NC3=CC(=O)C(C(=O)OC)C(C)C3)cc2)CC1 (stereo unspecified)	3.07
CCOC(=O)C1C(=O)C=C(Nc2ccccc2N2CCN(C)CC2)CC1C (stereo unspecified)	3.02

Okay, now this molecule:
Supply measured logP of COC(=O)C1C(=O)C=C(Nc2ccc(N3CCN(C)CC3)cc2)CC1c1ccccc1 (stereo unspecified) in your reply.
4.02
